# MEASUREMENT_DESCRIPTION: HILIC, Waters ACQUITY UPLC BEH Amide, 100 × 2.1 mm, 1.7 µm; A: water + 0.125% formic acid + 10 mM ammonium formate; B: 5% water + 95% acetonitrile + 0.125% formic acid + 10 mM ammonium formate; gradient (min/%B) 0/100 2/100 7.7/70 9.5/40 10.25/30 12.75/100 17/100
# ASSAY_CONDITIONS: stereoisomer not certain
# label = criterion met if LC retention time >= 4 min else criterion not met

{"columns": ["COMPOUND", "ANSWER_LABEL"],
 "data": [
  ["CCC(=O)OC(Cc1ccccc1)(c1ccccc1)C(C)CN(C)C (centres undefined)", "criterion not met"],
  ["CNS(=O)(=O)Cc1ccc2[nH]cc(CCN(C)C)c2c1", "criterion met"],
  ["CCCC(C)(COC(N)=O)COC(N)=O [Meprobamate]", "criterion not met"],
  ["CN1CCC23c4c5ccc(O)c4OC2C(=O)CCC3C1C5 (centres undefined) [Hydromorphone]", "criterion met"],
  ["CN(C)C(CCCN=C(N)N)C(=O)O (centres undefined)", "criterion met"]
]}

Exam item: In plain terms: is recorded LC retention time at least 4 min for Cc1cc2nc3c(=O)[nH]c(=O)nc-3n(CC(O)C(O)C(O)CO)c2cc1C (centres undefined) ?
Marked response: criterion met

Exam item: Same for CNC(Cc1ccccc1)C(=O)O (centres undefined)
Marked response: criterion met

Exam item: What about this compound? `CNCCCC12CCC(c3ccccc31)c1ccccc12`
Marked response: criterion not met
